STUDY TARGET: T1, WT H3.3 26-35 peptide/HLA-A*02:01 complex on T2 cells (human)
T1 construct: whole, on cells; T2 cells pulsed with the synthetic peptide; also called T2-WT H3.3; T2-WT 3.3
ASSAY DETAILS: flow cytometry, scFv phage on T2 cells, anti-M13 + labelled anti-mouse IgG
MEASURED ENDPOINT: Median MFI (PE-A) (MFI)
Give just the numeric value; MFI need not be written.

Worked examples, 2 binders total:
Phage clone 35 (scFv) scFv: SYVLTQPPSASGTPGQRVTISCSGSTFNIGSNTVNWYQQLPATAPKLLIYSNNQRPSGVPDRFSGSKSGTSASLAISGLQSEDAAAYYCAAWDDSLSGHVVFGGGTKLTVLGSRGGGGSGGGGSGGGGSLEMAEVQLVQSGAEVKKPGASVKVSCKASGYTFTSYGISWVRQAPGQGLEWMGWISAYNGNTNYAQKLQGRVTMTTDTSTSTAYMELRSLRSDDTAVYYCARYYESGYPFDWWGQGTLVTVSS | 84200
Phage clone 34 (scFv) scFv: QSVLTQPPSVSGAPGQRVTISCTGSSLNLGAGYDVHWYQQFPGTAPKLLIFANTNRPSGVPDRFSASKSGTSASLAITGLQAEDEADYFCQSYDNSLSGYVFGTGTKVTVLGSRGGGGSGGGGSGGGGSLEMAQVQLVQSGAEVKKPGSSVKVSCKASGGTFSSYAISWVRQAPGQGLEWMGGIIPIFGTANYAQKFQGRVTITADESTSTAYMELSSLRSEDTAVYYCARSYWTFEYSIDSWGQGTLVTVSS | 8340

Next binder, please.
Query string: Form field: reported Median MFI (PE-A) of Phage clone 32 (scFv) scFv: QSVLTQPPSVSGAPGQRVTISCTGSSSNLGAGYDVHWYQQLPGTAPKVLVYFNNNRPSGVPDRFSGSKSGTSASLAITGLQAEDEADYYCQSYDSSLSASVFGTGTKVTVLGSRGGGGSGGGGSGGGGSLEMAQVQLVESGAEVKKPGASVKVSCKASGYTFTSYTITWVRQAPGQGLEWMGWISPYNGNTNYAQNLQGRVTMTTDTSTTTAYMELRSLTSDDTAVYYCARSWEHGFPYDEWGQGTLVTVSS
Result string: 90800
